- study-system: T1, recombinant human CD70 (AviTag, polyhistidine tag and chicken tenascin trimerization domain fused to the … (chicken; human, UniProt P10039 110-139, limits assumed)
- T1 construct: domain: trimerization domain; Expressed in Expi293, purified by IMAC and SEC; Copies 3 is inferred from the trimerization domain; not shown: AviTag; polyhistidine tag
- T1 sequence: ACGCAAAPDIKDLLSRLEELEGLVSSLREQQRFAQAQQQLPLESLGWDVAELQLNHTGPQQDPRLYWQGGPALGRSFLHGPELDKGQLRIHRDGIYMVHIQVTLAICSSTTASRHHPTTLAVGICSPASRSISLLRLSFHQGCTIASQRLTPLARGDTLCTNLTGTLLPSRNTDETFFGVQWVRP
- method-notes: SPR (Biacore 8K, 37 C): CD70 captured via anti-AviTag antibody on C1 chip, scFv-Fc as analyte; 1:1 Langmuir fit
measured-property: t1/2 (min)
Kindly provide the numeric value in min only, without the unit symbol.

binder	t1/2 [min]
4F11 anti-CD70 scFv-Fc fusion (Fc fusion, scFv-Fc expressed in Expi293; not shown: part of the hinge and Fc from a modified human IgG2) QVTLKESGPVLVKPTETLTLTCTVSGFSLSNARMGVTWIRQPPGKALEWLAHIFSNDEKSYSTSLKSRLTISKDTSKTQVVLTMTNMDPVDTATYYCARIRDYYDISSYYDYWGQGTLVSVSSGGGGSGGGGSGGGGSGGGGSDIQMTQSPSAMSASVGDRVTITCRASQDISNYLAWFQQKPGKVPKRLIYAASSLQSGVPSRFSGSGSGTEFTLTISSLLPEDFATYYCLQLNSFPFTFGGGTKVEIN	7.2
P08G02 anti-CD70 scFv-Fc fusion (Fc fusion, scFv-Fc expressed in Expi293; not shown: part of the hinge and Fc from a modified human IgG2) EVQLVQSGAEVKKPGESLKISCKGSGYTFPSSWIGWVRQMPGKGLEWMGIIYPDTSHTRYSPSFQGQVTISADKSISTAYLQWSSLKASDTAMYYCARASYFDRGTGYSSWWMDVWGQGTLVTVSSGGGGSGGGGSGGGGSGGGGSELDIQMTQSPSSLSASVGDRVTITCRASQSIYDYLHWYQQKPGKAPKLLIYDASNLQSGVPSRFSGSGSGTDFTLTISSLQPEDFATYYCQQSYTTPLFTFGQGTKVEIK	1.5
11E1 anti-CD70 scFv-Fc fusion (Fc fusion, scFv-Fc expressed in Expi293; not shown: part of the hinge and Fc from a modified human IgG2) QVQLQESGPGLVKPLQTLSLTCTVSGGSISSDGYYWSWIRQNPGKGLEWIGYMYYSGSTYYNPSLKSRVTISVDTSKNQFSLKLRSVTAADTAVYYCTRDFGWYFDLWGRGTLVTVSSGGGGSGGGGSGGGGSGGGGSDIQMTQSPSSLSASVGDSITITCRASQDIDNYLAWYQQKTGKVPKVLIYAASALQSGVPSRFSGSGSGTDFTLTISSLQPEDVATYYCQNYNSGPRTFGQGTKVEIK	11.6
8C8 anti-CD70 scFv-Fc fusion (Fc fusion, scFv-Fc expressed in Expi293; not shown: part of the hinge and Fc from a modified human IgG2) EVQLVESGGGLVKPGGSLRLSCVASGFTFSSYSMNWVRQFPGKGLEWVSSISTSSNYIHYADSLQGRFTISRDNAKNSLYLQMSSLRVEDTAVYYCVRDKGTTLTNWYFDLWGRGTLVTVSSGGGGSGGGGSGGGGSGGGGSDMQMTQSPSSLSASVGDRVTLTCRASQGISNYLAWFQLKPGKVPKLLIYAASTLQSGVPSRFSGSGSGTDFALTISSLQPEDVATYYCQKYNSAPLTFGGGTKVEIK	7.3

Next up:
[in] Look up t1/2: 9E10 anti-CD70 scFv-Fc fusion (Fc fusion, scFv-Fc expressed in Expi293; not shown: part of the hinge and Fc from a modified human IgG2) QVQLVQSGAEVTKPGASVKVSCKASGYTFTSHYIYWVRQAPGQGLEWMGWINPNSGGTNYAQKFQDRVTMARDTSISTAYMELSRLRSDDTAVYYCAKDRKREYYYNFGMDVWGQGTTVTVSAGGGGSGGGGSGGGGSGGGGSDIQMTQSPSSLSASVGDRVILTCQASQDISNYLHWYQQKPGKAPKLLIYDASDLETGVPSRFSGSGSGADFTFTISNLQPEDFATYYCQQYDHLPITFGQGTRLEIK
[out] 5.4
